Reference source: ChEMBL document CHEMBL1122459

# Test system: Rattus norvegicus
# assay comment: Anticholinergic activity against carbachol induced gastric emptying(GE) in rat when administered perorally
# Type: functional
# condition summary: Stomach, po

compound: CCCCCCCCC/N=C/N1CCC(C(c2ccccc2)c2ccccc2)CC1.O=C(O)/C=C/C(=O)O
ED50: 40.4 mg/kg

compound: C=CC/N=C/N1CCC(C(c2ccccc2)c2ccccc2)CC1
ED50: 13.2 mg/kg

compound: CCCCCC/N=C/N1CCC(C(c2ccccc2)c2ccccc2)CC1.O=C(O)/C=C/C(=O)O
ED50: 15 mg/kg

compound: CCCCCCCCCC/N=C/N1CCC(C(c2ccccc2)c2ccccc2)CC1
ED50: 43.1 mg/kg

compound: CCCC/N=C/N1CCC(C(c2ccccc2)c2ccccc2)CC1.O=C(O)/C=C/C(=O)O
ED50: 10.3 mg/kg

compound: CC(C)/N=C/N1CCC(C(c2ccccc2)c2ccccc2)CC1.O=C(O)/C=C/C(=O)O
ED50: 15.1 mg/kg

compound: C#CC/N=C/N1CCC(C(c2ccccc2)c2ccccc2)CC1.Cl
ED50: 8 mg/kg

compound: CCCCCCC/N=C/N1CCC(C(c2ccccc2)c2ccccc2)CC1.O=C(O)/C=C/C(=O)O
ED50: 33.4 mg/kg

compound: Cl.N=CN1CCC(C(c2ccccc2)c2ccccc2)CC1
ED50: 0.86 mg/kg

compound: CCC(=N)N1CCC(C(c2ccccc2)c2ccccc2)CC1
ED50: 20 mg/kg

compound: CN1[C@@H]2CC[C@H]1C[C@@H](OC(=O)C(CO)c1ccccc1)C2 (some centres not stated)
ED50: 0.35 mg/kg

compound: CCCCCCCC/N=C/N1CCC(C(c2ccccc2)c2ccccc2)CC1.O=C(O)/C=C/C(=O)O
ED50: 176 mg/kg

----------
# study target: Muscarinic acetylcholine receptor
# assay comment: Displacement of [3H]- quinuclidinyl benzilate from rat brain Muscarinic acetylcholine receptor
The following molecules are listed with their measured I50 values.

smiles code: C=CC/N=C/N1CCC(C(c2ccccc2)c2ccccc2)CC1
value relation sign: =
I50, nM: 490
--
smiles code: CCCCCCCC/N=C/N1CCC(C(c2ccccc2)c2ccccc2)CC1.O=C(O)/C=C/C(=O)O
value relation sign: =
I50, nM: 8600
--
smiles code: CCCCCCC/N=C/N1CCC(C(c2ccccc2)c2ccccc2)CC1.O=C(O)/C=C/C(=O)O
value relation sign: =
I50, nM: 3300
--
smiles code: CCCC/N=C/N1CCC(C(c2ccccc2)c2ccccc2)CC1.O=C(O)/C=C/C(=O)O
value relation sign: =
I50, nM: 1600
--
smiles code: C#CC/N=C/N1CCC(C(c2ccccc2)c2ccccc2)CC1.Cl
value relation sign: =
I50, nM: 1300
--
smiles code: CCCCCCCCCC/N=C/N1CCC(C(c2ccccc2)c2ccccc2)CC1
value relation sign: =
I50, nM: 3800
--
smiles code: CCC(=N)N1CCC(C(c2ccccc2)c2ccccc2)CC1
value relation sign: =
I50, nM: 70
--
smiles code: CCCCCC/N=C/N1CCC(C(c2ccccc2)c2ccccc2)CC1.O=C(O)/C=C/C(=O)O
value relation sign: =
I50, nM: 1900
--
smiles code: Cl.N=CN1CCC(C(c2ccccc2)c2ccccc2)CC1
value relation sign: =
I50, nM: 3
--
smiles code: CC(C)/N=C/N1CCC(C(c2ccccc2)c2ccccc2)CC1.O=C(O)/C=C/C(=O)O
value relation sign: =
I50, nM: 1600
--
smiles code: CCCCCCCCC/N=C/N1CCC(C(c2ccccc2)c2ccccc2)CC1.O=C(O)/C=C/C(=O)O
value relation sign: >
I50, nM: 10000
